- test: Cell Viability - LYMP2-009 (AID 968);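 note: cells exposed to compound for 24 h at 37 °C; nearly all actives have a fitted effect of over 55% in size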
- condition: LYMP2-009 lymphoblastoid cell viability; series mostly up to 92.2 µM
Records with an inconclusive call do not appear. The source made the active and inactive calls. Calls come from the whole dose curve; as a rule, active = well fitted cell-killing curve with a large enough effect; inconclusive = small, poorly fitted or top-dose-only effect; inactive = flat fitted curve, though single readings scatter.
Can you answer with just one of these options? T (active), F (inactive)

So what was the verdict on CN(C)c1ccc2nc3ccc(=[N+](C)C)cc-3sc2c1 in this test?
T

I'd appreciate the recorded outcome for CC(=O)Nc1ccc(O)cc1 from this test.
F

# outcome recorded in this test, key = CCCc1cc(=O)[nH]c(=S)[nH]1
F

Test call, this compound: c1ccc2[nH]c(-c3cscn3)nc2c1
F

Returns: the outcome recorded for NS(=O)(=O)c1cc(C(=O)O)c(NCc2ccco2)cc1Cl in this assay.
F

Per the records of this test, what outcome belongs to CS(=O)(=O)OCCCCOS(C)(=O)=O ?
F

Assay outcome for CCCCC(CC)COC(=O)C(C#N)=C(c1ccccc1)c1ccccc1 (configuration not stated) : what was it?
F

---

Assignment: determine reported max response for the given compounds.
- test: qHTS assay for small molecule agonists of the antioxidant response element (ARE) signaling pathway measured by Nrf2-dependant transcriptional activity - cell viability counter screen (AID 720653); note: % is set by controls: 0 for no effect and ±100 for the full control effect
- condition: ARE-bla HepG2 viability, CellTiter-Glo ATP luminescence, 16 h; hits give low values
- Text: National Center for Advancing Translational Sciences [NCATS] NIH Chemical Genomics Center [NCGC] U.S. Environmental Protection Agency [EPA] National Institutes of Environmental Health Sciences [NIEHS] National Toxicology Program [NTP] […] The activation of the report gene under culture conditions can be detected by fluorescence intensity. The cytotoxicity of the compounds against the ARE-bla HepG2 cell line was quantified by measuring the intracellular ATP content. […]
Records with an inconclusive call do not appear.
Numeric only. Scale: %

Form field max response, entry CC(=O)N1CCN(c2ccc(OC[C@H]3CO[C@](Cn4ccnc4)(c4ccc(Cl)cc4Cl)O3)cc2)CC1 : -20.7

Entry CNC[C@H](O)c1ccc(O)c(O)c1 , max response reported as 4.44

Field max response (entry N[C@@H](Cc1cc(I)c(Oc2cc(I)c(O)c(I)c2)c(I)c1)C(=O)O ) reads -2.98

Lab book: max response of O=c1c(O)c(-c2ccc(O)cc2O)oc2cc(O)cc(O)c12 noted as 6.53

---

- test: qHTS Assay for Identifying Gametocytocidal Compounds (AID 743244);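 note: % is set by controls: 0 for no effect and ±100 for the full control effect; actives lower the fluorescent signal which means gametocytes are killed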
- condition: P. falciparum 3D7 stage III-V gametocytes, alamarBlue, 72 h; hits give low values
Records with an inconclusive call do not appear.
What max response was measured for each of the following?
Express your answer in %, writing the number without its unit.

Sure, the documented max response for Cn1c(NCCN(CCO)CCCc2ccc([N+](=O)[O-])cc2)cc(=O)n(C)c1=O is 4.58

Documented max response of Oc1ccc(-c2nc(-c3ccc(F)cc3)c(-c3ccncc3)[nH]2)cc1 : 19.1

Field max response (entry O=C(O)c1cc(=O)c2c(OCC(O)COc3cccc4oc(C(=O)O)cc(=O)c34)cccc2o1 ) reads 10.5

According to the records, this compound N=C(N=C(N)N)N1CCOCC1 displays max response of 0.738

Please fill in: max response reported for Cc1ccc(C)c(OCCCC(C)(C)C(=O)O)c1 = 17.4

The measured max response associated with O=c1cc(N2CCOCC2)oc2c(-c3ccccc3)cccc12 reads 3.56

---

- study_target: Cytochrome P450 2C9 (Homo sapiens) (UniProt P11712)
- Sequence (P11712 whole entry, looked up): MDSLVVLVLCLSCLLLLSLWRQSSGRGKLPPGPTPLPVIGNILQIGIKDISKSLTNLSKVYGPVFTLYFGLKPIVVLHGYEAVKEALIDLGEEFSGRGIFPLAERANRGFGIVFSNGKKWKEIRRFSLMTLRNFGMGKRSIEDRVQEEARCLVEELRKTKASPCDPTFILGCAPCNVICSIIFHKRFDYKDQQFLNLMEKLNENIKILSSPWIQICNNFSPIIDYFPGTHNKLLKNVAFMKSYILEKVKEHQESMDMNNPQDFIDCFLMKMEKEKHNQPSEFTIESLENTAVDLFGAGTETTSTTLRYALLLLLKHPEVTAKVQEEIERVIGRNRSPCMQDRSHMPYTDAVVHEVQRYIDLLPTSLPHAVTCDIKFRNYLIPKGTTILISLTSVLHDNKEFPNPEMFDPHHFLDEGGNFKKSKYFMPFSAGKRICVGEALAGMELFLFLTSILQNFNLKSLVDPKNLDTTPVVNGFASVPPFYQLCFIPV
- test: Cytochrome P450 family 2 subfamily C member 9 (CYP2C9) small molecule antagonists: luciferase biochemical (cell-free) qHTS assay (AID 1645842); note: % is set by controls: 0 for no effect and ±100 for the full control effect; nearly all actives have a fitted effect of over 55% in size
- condition: P450-Glo CYP2C9 enzyme assay, luciferin luminescence; series mostly up to 57.4 µM
Results filed as inconclusive are left out. Activity calls are given as the source filed them. Calls follow the shape of the dose curve; as a rule, active = well fitted inhibition curve with a large enough effect in the repeat runs; inconclusive = weak or mixed curves; inactive = no such curve, though single readings can be large or run the other way.
quantity: outcome

O=C(O)c1cn(-c2ccc(F)cc2)c2cc(N3CCNCC3)c(F)cc2c1=O :: inactive
CCCOc1ccc2nc(NC(=O)OC)[nH]c2c1 :: inactive
CNC[C@H](O)c1ccc(O)c(O)c1 :: inactive

---

- test: S16 Schwann cell PMP22 intronic element firefly luciferase assay (AID 624032); note: nearly all actives have a fitted effect of over 30% in size; note: potency is the fitted concentration of half-maximal effect
- condition: S16 rat Schwann cells, PMP22 element FLuc, 24 h; series mostly up to 57.5 µM
Inconclusive results are not listed. Activity calls are given as the source filed them. Calls follow the shape of the dose curve; as a rule, active = well fitted inhibition curve with a large enough effect; inconclusive = small, poorly fitted or top-dose-only effect; inactive = no such curve, though single readings can be large or run the other way.
quantity: Potency

Field: example entries. Status: answers known.
Nc1cccc2c1CN(C1CCC(=O)NC1=O)C2=O (centres undefined) :: inactive
CNC[C@@H](O)[C@@H](O)[C@H](O)[C@H](O)CO :: inactive
O=P(O)(O)C(O)(Cn1ccnc1)P(=O)(O)O :: inactive
Cc1c(C(=O)NN2CCCCC2)nn(-c2ccc(Cl)cc2Cl)c1-c1ccc(Cl)cc1 :: 18.1 µM (active)
CNC[C@H](O)c1ccc(O)c(O)c1 :: inactive

So, CS(=O)(=O)OCCCCOS(C)(=O)=O ? Its Potency was inactive

Potency for CC1(C)CCC(C)(C)c2cc(NC(=O)c3ccc(C(=O)O)cc3)ccc21 is 0.114 µM (active)

Recorded result, Cc1ccc(NC(=O)c2ccc(CN3CCN(C)CC3)cc2)cc1Nc1nccc(-c2cccnc2)n1 , Potency: inactive

---

- test: Quantitative High-Throughput drug screen in 47 multiple myeloma cell lines against the NCATS MIPE library collection: FR4_PLB cell viability assay (AID 1918924; note: nearly all actives have a fitted effect of over 35% in size)
- condition: FR4_PLB myeloma cells viability, CellTiter-Glo ATP, 48 h; series mostly up to 45.8 µM
Results filed as inconclusive are left out. Activity calls are given as the source filed them. The call rests on the fitted dose curve; in most records, active means well fitted cell-killing curve with a large enough effect; inconclusive means small, poorly fitted or top-dose-only effect, or effect the other way; inactive means no such curve, though single readings can be large or run the other way.
Permitted responses: 1 = active, -1 = inactive

Assay result, entry COc1cc(OC)c(C(=O)CCCN2CCCC2)c(OC)c1 — outcome?
-1

Test call for this compound, please: CC1(C)CCC(C)(C)c2cc(NC(=O)c3ccc(C(=O)O)cc3)ccc21
-1

For CN(C)CCCC1(c2ccc(F)cc2)OCc2cc(C#N)ccc21 (stereo not given) , what call appears in the results of this test?
-1

How did this test come out for Cc1c(OCC(F)(F)F)ccnc1CS(=O)c1nc2ccccc2[nH]1 (stereo not given) ?
-1

Recorded test call requested for CCC[C@@H]1C[C@@H](C(=O)N[C@@H]([C@H]2O[C@H](SC)[C@H](O)[C@@H](O)[C@H]2O)[C@@H](C)O)N(C)C1
-1

Look up the recorded call for c1cnc2cc3c(cc2n1)C1CNCC3C1 in this test.
-1

State the result this test recorded for Nc1nc(Cl)nc2c1ncn2[C@H]1C[C@H](O)[C@@H](CO)O1 .
1

Each compound tested received a call. Report the one for CC(C)[N+]1(C)[C@@H]2CC[C@H]1CC(OC(=O)C(CO)c1ccccc1)C2 (stereo not given in full) .
-1

Recorded call for Cc1nc2n(c(=O)c1CCN1CCC(c3noc4cc(F)ccc34)CC1)CCCC2 ?
-1

Recorded test call requested for CCN(CC)CCOc1ccc(Nc2ncc3cc(-c4c(Cl)cccc4Cl)c(=O)n(C)c3n2)cc1
1

---

- test: Quantitative High-Throughput drug screen in 47 multiple myeloma cell lines against the NCATS MIPE library collection: AMO1_DSMZ cell viability assay (AID 1918927; note: nearly all actives have a fitted effect of over 30% in size; note: potency is the fitted concentration of half-maximal effect)
- condition: AMO1 myeloma cells viability, CellTiter-Glo ATP luminescence, 48 h; series mostly up to 45.8 µM
Results filed as inconclusive are left out. Active and inactive are the calls of the source. Calls follow the shape of the dose curve; as a rule, active = well fitted cell-killing curve with a large enough effect; inconclusive = small, poorly fitted or top-dose-only effect, or effect the other way; inactive = no such curve, though single readings can be large or run the other way.
quantity: Potency

These solved cases illustrate the format of a correct answer.
CCc1nc(N)nc(N)c1-c1ccc(Cl)cc1 :: 1480 nM (active)
Clc1ccc2c(N3CCN(CCCN4CCN(c5ccnc6cc(Cl)ccc56)CC4)CC3)ccnc2c1 :: inactive
COc1cc2c(N3CCN(C(=O)Nc4ccc(OC(C)C)cc4)CC3)ncnc2cc1OCCCN1CCCCC1 :: inactive
CCCOc1ccc2nc(NC(=O)OC)[nH]c2c1 :: 1 nM (active)
O=C1c2ccccc2-c2n[nH]c3cccc1c23 :: 20900 nM (active)

Now, please, on to the next molecule.
Given item COc1c2occc2cc2ccc(=O)oc12 , the value recorded as its Potency is inactive

---

- test: qHTS of pediatric cancer cell lines to identify multiple opportunities for drug repurposing: Primary screen for LAN-5 cells (AID 1347100)
- condition: LAN-5 neuroblastoma viability, CellTiter-Glo luminescence, 48 h; series mostly up to 46 µM
Results filed as inconclusive are left out. Active and inactive are the calls of the source. Calls follow the shape of the dose curve; as a rule, active = well fitted cell-killing curve with a large enough effect; inconclusive = small, poorly fitted or top-dose-only effect; inactive = no such curve, though single readings can be large or run the other way.
Pick one: True (active), False (inactive)

Could you kindly confirm the outcome this assay logged for CC(=O)NC[C@H]1CN(c2ccc(N3CCOCC3)c(F)c2)C(=O)O1 ?
False

Assay result, entry CC(S)C(=O)NCC(=O)O (stereo unspecified) — outcome?
False

# fetch the recorded call for O=C(O)c1cccc(-c2noc(-c3ccccc3F)n2)c1 here
False

Any idea what this test logged for Nc1nc(OCc2ccccc2)c2[nH]cnc2n1 ?
False

Which outcome was entered for the compound CC(C)[N+]1(C)[C@@H]2CC[C@H]1CC(OC(=O)C(CO)c1ccccc1)C2 (stereo partly specified) in this test?
False

Fill in: this test's call for CC(C)C[C@H](NC(=O)[C@H](Cc1ccccc1)NC(=O)c1cnccn1)B(O)O is ___
True
